Sequence of the target: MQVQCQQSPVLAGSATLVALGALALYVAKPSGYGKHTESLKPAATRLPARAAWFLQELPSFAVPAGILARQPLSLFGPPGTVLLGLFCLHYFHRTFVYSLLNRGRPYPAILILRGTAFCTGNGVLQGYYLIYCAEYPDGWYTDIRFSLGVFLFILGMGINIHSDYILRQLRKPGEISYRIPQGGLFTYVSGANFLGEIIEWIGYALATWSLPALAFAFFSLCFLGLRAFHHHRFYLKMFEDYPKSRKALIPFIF
pIC50: −log10 of the molar value.
Parameter: pIC50

Worked set:
C[C@]12CC[C@H]3[C@@H](CNC4=CC(=O)CC[C@@]43C)[C@@H]1CC[C@@H]2C(=O)Nc1cccc2cc3ccccc3cc12 [Compound 67]	> 8.00
C[C@]12CC[C@H]3[C@@H](CNC4=CC(=O)CC[C@@]43C)[C@@H]1CC[C@@H]2C(=O)N1CCOCC1 [Compound 23]	7.00 to 8.00
C=CCN1C[C@H]2[C@@H]3CC[C@H](C(=O)N(CC)CC)[C@@]3(C)CC[C@@H]2[C@@]2(C)CCC(=O)C=C12 [Compound 42]	6.00 to 7.00
CCN(CC)C(=O)[C@H]1CC[C@H]2[C@@H]3CN(C(C)C)C4=CC(=O)CC[C@]4(C)[C@H]3CC[C@]12C [Compound 39]	> 8.00

Please go through the list and note pIC50 for each compound.
1. CC(C)(C)NC(=O)[C@H]1CC[C@H]2[C@@H]3CNC4=CC(=O)C=C[C@]4(C)[C@H]3CC[C@]12C [Compound 28]
2. C[C@]12CC[C@H]3[C@@H](CNC4=CC(=O)CC[C@@]43C)[C@@H]1CC[C@@H]2C(=O)NCC1CC2CCC1C2 (stereo partly shown) [Compound 60]

1: 7.00 to 8.00; 2: 7.00 to 8.00

For each of the items listed, what is its pIC50?
1. CCN(CC)C(=O)[C@H]1CC[C@H]2[C@@H]3CN(CCC(=O)OC)C4=CC(=O)CC[C@]4(C)[C@H]3CC[C@]12C [Compound 46]
2. CC1=C2N(C)C[C@H]3[C@@H]4CC[C@H](C(=O)NC56CC7CC(CC(C7)C5)C6)[C@@]4(C)CC[C@@H]3[C@@]2(C)CCC1=O [Compound 57]
3. CCN(CC)C(=O)/C=C/[C@H]1CC[C@H]2[C@@H]3CNC4=CC(=O)CC[C@]4(C)[C@H]3CC[C@]12C [Compound 76]
4. CCN(CC)C(=O)[C@H]1CC[C@H]2[C@@H]3CN(CC(C)C)C4=CC(=O)CC[C@]4(C)[C@H]3CC[C@]12C [Compound 40]
5. CN1C[C@H]2[C@@H]3CC[C@H](C(=O)NC45CC6CC(CC(C6)C4)C5)[C@@]3(C)CC[C@@H]2[C@@]2(C)C=CC(=O)C=C12 [Compound 31]
6. C[C@]12CC[C@H]3[C@@H](CNC4=C(Br)C(=O)CC[C@@]43C)[C@@H]1CC[C@@H]2C(=O)NC12CC3CC(CC(C3)C1)C2 [Compound 55]
7. CCN(CC)C(=O)[C@H]1CC[C@H]2[C@@H]3CNC4=CC(=O)CC[C@]4(C)[C@H]3CC[C@]12C [Compound 1]

1. 6.00 to 7.00
2. 7.00 to 8.00
3. 7.00 to 8.00
4. 6.00 to 7.00
5. > 8.00
6. > 8.00
7. > 8.00

###

Answer each item with its documented IC50.
Sequence of the target: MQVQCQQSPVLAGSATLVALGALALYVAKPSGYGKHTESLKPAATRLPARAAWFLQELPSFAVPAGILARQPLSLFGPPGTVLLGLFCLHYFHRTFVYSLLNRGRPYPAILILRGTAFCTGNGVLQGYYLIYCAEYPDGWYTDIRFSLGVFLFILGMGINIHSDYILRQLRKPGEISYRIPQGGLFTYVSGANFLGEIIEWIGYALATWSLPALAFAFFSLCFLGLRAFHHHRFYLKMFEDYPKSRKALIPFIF

CCN(CC)C(=O)[C@H]1CC[C@H]2[C@@H]3CNC4=CC(=O)C=C[C@]4(C)[C@H]3CC[C@]12C	10 to 100 nM
CC1=C2NC[C@H]3[C@@H]4CC[C@H](C(=O)NC(C)(C)C)[C@@]4(C)CC[C@@H]3[C@@]2(C)CCC1=O	10 to 100 nM
C[C@]12CC[C@H]3[C@@H](CNC4=CC(=O)CC[C@@]43C)[C@@H]1CC[C@@H]2C(=O)OC12CC3CC(CC(C3)C1)C2	< 10 nM
CCN(CC)C(=O)[C@H]1CC[C@H]2[C@@H]3CNC4=C(F)C(=O)CC[C@]4(C)[C@H]3CC[C@]12C	10 to 100 nM

Could you tell me IC50 for each of these molecules? They are listed below.
1. CCN(CC)C(=O)[C@H]1CC[C@H]2[C@@H]3CN(CC4CC4)C4=CC(=O)CC[C@]4(C)[C@H]3CC[C@]12C
2. CC(C)CC(=O)[C@H]1CC[C@H]2[C@@H]3CNC4=CC(=O)CC[C@]4(C)[C@H]3CC[C@]12C
3. CCN(CC)C(=O)[C@H]1CC[C@H]2[C@@H]3CNC4=C(C#N)C(=O)CC[C@]4(C)[C@H]3CC[C@]12C

100 to 1000 nM
< 10 nM
100 to 1000 nM

###

Biological target: UniProt P31213
Sequence (P31213 1-254): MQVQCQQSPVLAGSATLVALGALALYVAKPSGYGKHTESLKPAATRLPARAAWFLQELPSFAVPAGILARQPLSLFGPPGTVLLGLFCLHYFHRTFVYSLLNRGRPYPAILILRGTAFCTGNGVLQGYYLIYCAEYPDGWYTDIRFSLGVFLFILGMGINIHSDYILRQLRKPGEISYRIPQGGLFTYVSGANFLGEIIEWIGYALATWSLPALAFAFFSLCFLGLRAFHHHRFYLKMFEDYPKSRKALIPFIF
Parameter: IC50

CC(C)N(C(=O)[C@H]1CC[C@H]2[C@@H]3CNC4=CC(=O)CC[C@]4(C)[C@H]3CC[C@]12C)C(C)C	< 10 nM
C[C@]12CC[C@H]3[C@@H](CNC4=CC(=O)CC[C@@]43C)[C@@H]1CC[C@@H]2C(=O)NC(c1ccccc1)c1ccccc1	< 10 nM
CC1=C2NC[C@H]3[C@@H]4CC[C@H](C(=O)CC(C)C)[C@@]4(C)CC[C@@H]3[C@@]2(C)CCC1=O	< 10 nM

Provide reported IC50 for each item, in the same order as listed.
1. CCN(CC)C(=O)[C@H]1CC[C@H]2[C@@H]3CN(CCCCC(=O)OC)C4=CC(=O)CC[C@]4(C)[C@H]3CC[C@]12C
2. C[C@]12CC[C@H]3[C@@H](CNC4=CC(=O)CC[C@@]43C)[C@@H]1CC[C@@H]2C(=O)N(c1ccccc1)c1ccccc1

1. 100 to 1000 nM
2. < 10 nM

###

Answer each item with its documented pIC50.
Target: Steroid 5-α-Reductase
Assay: Steroid 5-α-reductase in vitro assay, rat prostate microsomes
Conditions: rat prostatic microsomes; 100 nM [3H]-testosterone, 1 mM NADPH, 60 minutes at 37° C.; read-out: ID50 Rat
pIC50: −log10 of the molar value.

Please review the entries below; each comes with its answer.
C[C@]12CC[C@H]3[C@@H](CNC4=CC(=O)CC[C@@]43C)[C@@H]1CC[C@@H]2C(=O)NCC1CC2CCC1C2 (stereo partly shown)	> 8.00
CCN(CC)C(=O)[C@H]1CC[C@H]2[C@@H]3CNC4=CC(=O)C(C)C[C@]4(C)[C@H]3CC[C@]12C (stereo partly shown)	6.00 to 7.00
CC1=C2NC[C@H]3[C@@H]4CC[C@H](C(=O)NC(C)(C)C)[C@@]4(C)CC[C@@H]3[C@@]2(C)CCC1=O	7.00 to 8.00

Query: pIC50; subject: CC(C)CC(=O)[C@H]1CC[C@H]2[C@@H]3CN(C)C4=CC(=O)CC[C@]4(C)[C@H]3CC[C@]12C
7.00 to 8.00

###

Target: Steroid 5-α-Reductase
Assay: Steroid 5-α-reductase in vitro assay, rat prostate microsomes
Settings: rat prostatic microsomes; 100 nM [3H]-testosterone, 1 mM NADPH, 60 minutes at 37° C.; read-out: ID50 Rat
pIC50: −log10 of the molar value.
Parameter: pIC50

Some compounds with known pIC50 results, for comparison:
CC(C)N(C(=O)[C@H]1CC[C@H]2[C@@H]3CN(C)C4=CC(=O)CC[C@]4(C)[C@H]3CC[C@]12C)C(C)C	7.00 to 8.00
CC(C)(C)NC(=O)[C@H]1CC[C@H]2[C@@H]3CNC4=CC(=O)CC[C@]4(C)[C@H]3CC[C@]12C	7.00 to 8.00

Give me pIC50 for each of these compounds, listed below.
1. CC(C)CC(=O)[C@H]1CC[C@H]2[C@@H]3CNC4=CC(=O)CC[C@]4(C)[C@H]3CC[C@]12C
2. C[C@]12CC[C@H]3[C@@H](CNC4=CC(=O)CC[C@@]43C)[C@@H]1CC[C@@H]2C(=O)Nc1cccc2cc3ccccc3cc12
3. C[C@]12CC[C@H]3[C@@H](CNC4=CC(=O)CC[C@@]43C)[C@@H]1CC[C@@H]2C(=O)NC1CC2CCC1C2 (stereo partly shown)
4. CC1=C2NC[C@H]3[C@@H]4CC[C@H](C(=O)CC(C)C)[C@@]4(C)CC[C@@H]3[C@@]2(C)CCC1=O
5. CC1=C2N(C)C[C@H]3[C@@H]4CC[C@H](C(=O)NC56CC7CC(CC(C7)C5)C6)[C@@]4(C)CC[C@@H]3[C@@]2(C)CCC1=O
6. C[C@]12CC[C@H]3[C@@H](CNC4=CC(=O)CC[C@@]43C)[C@@H]1CC[C@@H]2C(=O)N(c1ccccc1)c1ccccc1

1. 7.00 to 8.00
2. > 8.00
3. 7.00 to 8.00
4. 7.00 to 8.00
5. > 8.00
6. 6.00 to 7.00
